Reported inhibition by item:
target-under-test: Cannabinoid receptor 1 (Homo sapiens, UniProt P21554)
Sequence (P21554 whole entry): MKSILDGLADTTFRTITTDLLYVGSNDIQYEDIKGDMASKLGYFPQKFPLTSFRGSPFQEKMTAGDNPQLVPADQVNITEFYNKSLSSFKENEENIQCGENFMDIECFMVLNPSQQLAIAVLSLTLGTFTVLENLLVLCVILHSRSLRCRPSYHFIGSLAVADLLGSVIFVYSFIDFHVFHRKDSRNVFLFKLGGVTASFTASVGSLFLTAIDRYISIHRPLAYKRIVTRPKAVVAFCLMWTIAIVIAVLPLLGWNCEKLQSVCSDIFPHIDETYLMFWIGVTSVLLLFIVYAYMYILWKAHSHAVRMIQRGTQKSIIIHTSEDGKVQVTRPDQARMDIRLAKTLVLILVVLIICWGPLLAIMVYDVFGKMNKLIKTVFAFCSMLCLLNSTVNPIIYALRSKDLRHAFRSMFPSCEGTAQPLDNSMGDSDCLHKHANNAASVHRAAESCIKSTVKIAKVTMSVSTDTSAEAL
measurement-notes: Displacement of [3H]rimonabant from human CB1 receptor expressed in HEK293 cells assessed as signal point inhibition at 10 uM by liquid scintillation counting
Format: cell-based
Answer in %, number only, no unit symbol.

- molecule: "CCOC(=O)N1CC=C2C(C1)C1(C(=O)N(Cc3ccccc3)c3ccccc31)C(C#N)=C(N)C2(C#N)C#N (stereo not drawn)"
  target-under-test: "Cannabinoid receptor 1 (Homo sapiens, UniProt P21554)"
  units: "%"
  recorded-result: 82

Exercise: Form field: reported inhibition of CC(C)(C)c1ccc(C(=O)N2C(C(=O)NCc3ccccn3)CSC2c2cccc(F)c2)cc1 (stereo not drawn)
Key: 62

Exercise: What do you have for `CCCNC(=O)N1CCN(c2nc(Cc3ccccc3)c3c(c2C#N)CC(C)(C)OC3)CC1` ?
Key: 81

Exercise: Continue with CC(C)N(CC(=O)N1c2ccccc2-n2cccc2C1c1ccc(F)cc1)C(=O)CC(C)(C)C (stereo not drawn)
Key: 64

Exercise: Input COc1ccc(C2C(C(=O)Nc3cccc(C)n3)c3ccccc3C(=O)N2C2CCCCC2)cc1 (stereo not drawn)
Key: 69

Exercise: Try this molecule next: `O=C(c1ccc(-n2cnnn2)cc1)N(c1ccccc1)C1(C(=O)Nc2ccccc2)CCCCC1`
Key: 71

Exercise: Moving on to the next molecule: COc1ccc(C2c3ccsc3CCN2C(=O)CN(C(=O)C2CCCCC2)C(C)C)cc1 (stereo not drawn)
Key: 82

Exercise: Same question for Cc1ccc(C(C(=O)Nc2ccc3c(c2)OCCO3)N(C)C(=O)/C=C\c2ccc3c(c2)OCO3)cc1 (stereo not drawn) please.
Key: 71
